experiment: Half life in IV-dosed rat; type: ADME; conditions: in vivo
PROPERTY_LABEL: half-life
Write the quantity with the unit trailing the number.

Output measured half-life for this item: `CCn1nc(-c2cnc(N)c(OC(F)F)c2)c2ccn([C@@H]3CCC(F)(F)C[C@@H]3OC)c(=O)c21`
7.2 h

====

Each entry below carries its recorded pIC50.
assay: Inhibition of human DLK transfected in HEK293-T-REx cells assessed as decrease in JNK phosphorylation incubated for 5 hrs by HTRF assay; type: cell-based
Worth noting: pIC50 values are minus log10 of concentrations stated in mol/L.

See these solved cases before continuing.
STRUCTURE_STRING | PROPERTY_LABEL | NUMERIC_RESULT
CCn1nc(-c2cnc(N)c(OC(F)(F)F)c2)c2ccn([C@@H]3CCOC[C@@H]3OC)c(=O)c21 | pIC50 | 7.03
Nc1ncc(-c2nn(C3CC3)c3c(=O)n(C4CCOCC4)ccc23)cc1OC(F)(F)F | pIC50 | 6.98
CN1CCC(c2ccc3c(-c4cnc(N)c(C(F)(F)F)c4)nc([C@@H]4CCCO4)n3c2)CC1 | pIC50 | 7.66

Output measured pIC50 for this item: `CO[C@H](C)c1nc(-c2cnc(N)c(C(F)(F)F)c2)c2ccc(C3CCN(C)CC3)cn12`
7.27

Output measured pIC50 for this item: `CCn1nc(-c2cnc(N)c(OC(F)F)c2)c2ccn([C@@H]3CCC(F)(F)C[C@@H]3OC)c(=O)c21`
7.29

Output measured pIC50 for this item: `CCc1nc(-c2cnc(N)c(OC(F)(F)F)c2)c2cc(Cl)c([C@H]3COCCN3C)cn12`
6.35
